- ASSAY_SUMMARY: acute toxicity (LD50) i.v. in mice
- CONDITION_NOTES: mouse, in vivo, iv
ENDPOINT_LABEL: LD50

[ask] Quote LD50 reported for CO/N=C(\C(=O)NC1C(=O)N2C(C(=O)O)=C(Sc3nc4ccccc4s3)CS[C@H]12)c1nsc(N)n1 (stereo partly shown) please.
[reply] 1000 to 1500 mg/kg

====

- ASSAY_SUMMARY: concentration in blood after subcutaneous injection (serum concentration by HPLC)
- Type: in vivo
- CONDITION_NOTES: serum, sc; ICR mice, male; 0.5 mg per mouse subcutaneous; sampling 5 minutes to 2 hours; Gauss-Newton method; read-out: AUC (area under the plasma concentration-time curve)
ENDPOINT_LABEL: AUC (µg·h/mL)
Note: unit µg·h/mL is implicit; provide only the numeric part.

[ask] Using known records, supply AUC for CO/N=C(\C(=O)NC1C(=O)N2C(C(=O)O)=C(Sc3nc4cccnc4s3)CS[C@H]12)c1nsc(N)n1 (stereo partly drawn)
[reply] 230

[ask] Query AUC for CO/N=C(\C(=O)NC1C(=O)N2C(C(=O)O)=C(Sc3nc4ccccc4s3)CS[C@H]12)c1nsc(N)n1 (stereo partly drawn)
[reply] 343

[ask] Output measured AUC for this item: CO/N=C(\C(=O)NC1C(=O)N2C(C(=O)O)=C(Sc3nc4ccccc4o3)CSC12)c1csc(N)n1 (stereo not drawn)
[reply] 442

====

Please go through the items and note down their half-life.
- ASSAY_SUMMARY: concentration in blood after subcutaneous injection (serum concentration by HPLC)
- Type: in vivo
- CONDITION_NOTES: serum, sc; ICR mice, male; 0.5 mg per mouse subcutaneous; Gauss-Newton method; read-out: Half-life period (converted)

[ask] Specify reported half-life for the compound shown: CO/N=C(\C(=O)NC1C(=O)N2C(C(=O)O)=C(Sc3nc4ccccc4o3)CSC12)c1csc(N)n1 (stereo not drawn)
[reply] 2.1 h

[ask] Tell us which half-life value is on record for CO/N=C(\C(=O)NC1C(=O)N2C(C(=O)O)=C(Sc3nc4cccnc4s3)CS[C@H]12)c1nsc(N)n1 (stereo partly drawn)
[reply] 1.3 h

[ask] Quickly give me recorded half-life for CO/N=C(\C(=O)NC1C(=O)N2C(C(=O)O)=C(Sc3nc4ccccc4s3)CS[C@H]12)c1nsc(N)n1 (stereo partly drawn)
[reply] 1.8 h
